Test system: SCRIB_3, Q14160
Sequence (Q14160 999-1103): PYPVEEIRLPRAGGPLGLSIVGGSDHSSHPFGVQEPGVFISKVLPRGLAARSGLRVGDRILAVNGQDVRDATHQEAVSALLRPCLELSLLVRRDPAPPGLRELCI
Experiment description: holdup assay
Set-up: key: below the threshold = too weak to quantify, mostly under pKd 3.1 to 4
Applied conditions: plain residues with an end cap or a label only (N-terminal biotin on a linker: ttds)
pKd below 4 gives 0.0; pKd at or above it gives 1.0.

>>> df
                          binder  class_label
0    KLVIKTETTV [RASSF6, Q6ZTQ3]          1.0
1    GARVSKETPL [MAPK12, P53778]          1.0
2      SHSSKGETAV [FZD7, O75084]          1.0
3  SRSRRRETAL [HPV33-E6, P06427]          1.0
4      PFRSRSPSEV [GPR6, P46095]          0.0
